Source: paper PMC3873001

assay: Cytotoxicity assessment using L6 cells
Type: cell-based
measurementContext: rat, L6 cells (rat skeletal myoblasts)
recordedMetric: IC50 (µM)
Kindly answer with a numeric value in µM, unit omitted.

Prompt: Tell me the measured IC50 of COc1ccc(N2CCN(CCCn3cnc([N+](=O)[O-])n3)CC2)cc1 [Compound 9] , please.
Response: 125

====

Tested on: L. donovani axenic amastigotes (MHOM-ET-67/L82)
assay: In vitro growth inhibition of axenically cultured L. donovani amastigotes
Assay type: cell-based, Leishmania donovani
measurementContext: Leishmania donovani, read-out: L.don. axen. IC-50
recordedMetric: IC50 (µM)
Kindly answer with a numeric value in µM, unit omitted.

Prompt: Tell me the measured IC50 of "O=[N+]([O-])c1nccn1CCCCNc1nc2ccc(Cl)cc2s1" , please.
Response: 7.3

Prompt: Also "Cl.Cl.O=[N+]([O-])c1ncn(CCCN2CCN(c3ccc(C(F)(F)F)cc3)CC2)n1" , if possible.
Response: 25.9

Prompt: Also "Cl.Cl.O=[N+]([O-])c1ncn(CCCN2CCN(Cc3ccc(C(F)(F)F)cc3)CC2)n1" , if possible.
Response: 58.1

Next:
Prompt: Tell me the measured IC50 of "Cl.Cl.O=[N+]([O-])c1ncn(CCCCN2CCN(Cc3ccc(C(F)(F)F)cc3)CC2)n1" , please.
Response: 44.5
